# test.system: Human transferrin (Homo sapiens)
# Construct: purchased Sigma
# Sequence (P02787 20-698): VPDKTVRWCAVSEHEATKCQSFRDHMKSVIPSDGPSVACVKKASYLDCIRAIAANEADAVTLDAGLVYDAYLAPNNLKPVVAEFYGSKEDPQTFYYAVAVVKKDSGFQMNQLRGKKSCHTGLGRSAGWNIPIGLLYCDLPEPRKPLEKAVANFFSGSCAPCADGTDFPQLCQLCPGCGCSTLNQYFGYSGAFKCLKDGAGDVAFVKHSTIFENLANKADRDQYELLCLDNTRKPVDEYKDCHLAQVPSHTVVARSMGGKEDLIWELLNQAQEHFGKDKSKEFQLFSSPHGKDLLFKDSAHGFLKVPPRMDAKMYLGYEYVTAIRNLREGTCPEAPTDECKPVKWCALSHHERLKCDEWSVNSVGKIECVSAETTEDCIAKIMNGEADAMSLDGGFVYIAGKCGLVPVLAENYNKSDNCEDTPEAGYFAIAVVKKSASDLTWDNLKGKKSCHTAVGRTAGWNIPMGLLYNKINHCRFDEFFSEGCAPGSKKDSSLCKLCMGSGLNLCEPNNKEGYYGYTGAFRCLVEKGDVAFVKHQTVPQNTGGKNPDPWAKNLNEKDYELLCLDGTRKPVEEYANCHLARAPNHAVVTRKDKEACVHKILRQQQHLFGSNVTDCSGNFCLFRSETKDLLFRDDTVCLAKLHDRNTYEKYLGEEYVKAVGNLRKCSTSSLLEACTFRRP
# assay.procedure: Mobilisation of iron from 59Fe-loaded transferrin
# Format: biochemical
# reported.conditions: 59Fe transferrin 10^-5 M, compound 4 x 10^-3 M in tris HCl (0.1 M, pH 7.4), incubation 18 hours
# Description: Human transferrin (Sigma) was loaded with iron (III) by the method of Bates and Schlaback. J. Biol. Chem. (1973) 248, 3228. ^59Iron (III) transferrin (10^-5 M) was incubated with a 4 x 10^-3 M solution in tris HCl (0.1 M, pH 7.4) of one of various pyridones as indicated in Table 3 for periods of 4 hours and 18 hours. The solution was then dialysed against phosphate buffered saline for 24 hours. The ^59Fe remaining in the dialysis tube was then recorded. […]
measured.property: Percentage of iron removed 18 hours (%)

| compound | value.units | numeric.result |
| --- | --- | --- |
| O=C(O)CN(CCN(CC(=O)O)CC(=O)O)CC(=O)O [EDTA, ethylenediamine tetra-acetic acid, reference compound] | % | 67 |

P: CC(=O)N(O)CCCCCNC(=O)CCC(=O)N(O)CCCCCNC(=O)CCC(=O)N(O)CCCCCN [Desferrioxamine, reference compound]
Q: Cn1cc(O)c(=O)cc1CO
Between P and Q , whose measured Percentage of iron removed 18 hours reads higher? State the label of the item chosen.
Q
(Q: 97%, P: 22%)

These entries and their values trace back to patent EP0305646B1.
